molecular target: recombinant hRIPK2 protein (kinase domain aa 1-299-His-tagged) (Homo sapiens); construct: kinase domain aa 1-299-His-tagged; test: RIPK2 AlphaLISA assay (displacement of bead-bound CZC-8004 from hRIPK2); settings: recombinant hRIPK2 kinase domain 10 nM, 2 h at 23° C.
Sequence (O43353 1-299): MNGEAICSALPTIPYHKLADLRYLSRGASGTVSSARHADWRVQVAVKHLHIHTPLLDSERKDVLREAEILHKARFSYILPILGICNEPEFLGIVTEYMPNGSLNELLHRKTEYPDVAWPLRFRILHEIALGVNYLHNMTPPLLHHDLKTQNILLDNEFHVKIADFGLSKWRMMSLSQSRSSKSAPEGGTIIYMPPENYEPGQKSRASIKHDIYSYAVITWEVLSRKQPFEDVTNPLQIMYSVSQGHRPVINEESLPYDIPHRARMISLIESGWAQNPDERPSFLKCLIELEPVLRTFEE
IC50 values by entry
resultType: IC50

compound	observed
COCCO[C@@H]1C[C@H]2COc3nc4c(cnn4cc3OC)-c3cc(cc(OC(C)C)c3)NCCN2C1=O	< 0.01 µM
CCOc1cc2cc(c1)-c1cnn3ccc(nc13)OC[C@@H]1C[C@@H](OCC)C(=O)N1CCN2	< 0.01 µM
CO[C@@H]1CC2(C)COc3ccn4ncc(c4n3)-c3cc(F)cc(c3)NCCN2C1=O (single isomer, unassigned) [Example 85]	0.1 to 11 µM
COc1cc2cc(c1)-c1cnn3ccc(nc13)OC[C@@H]1C[C@@H](OC)C(=O)N1CC(C)N2 (stereo partly drawn) [Example 89]	< 0.01 µM
C#Cc1cc2cc(c1)-c1cnn3cc(OC)c(nc13)OC[C@@H]1C[C@@H](OCCOC)C(=O)N1CCN2	< 0.01 µM
COCC#Cc1cc2cc(c1)-c1cnn3ccc(nc13)OC[C@@H]1C[C@@H](OCCOC)C(=O)N1CCN2	0.01 to 0.1 µM
CO[C@@H]1C[C@H]2COc3ccn4ncc(c4n3)-c3cc(cc(-c4ncno4)c3)NCCN2C1=O	< 0.01 µM
CCOc1cn2ncc3c2nc1OC[C@@H]1C[C@@H](OCCOC)C(=O)N1CCNc1cc(OC)cc-3c1	< 0.01 µM
[2H]C([2H])([2H])Oc1cn2ncc3c2nc1OC[C@@H]1C[C@@H](OC)C(=O)N1CCNc1cc(F)cc-3c1	< 0.01 µM
CO[C@@H]1C[C@H]2COc3ccn4ncc(c4n3)-c3cc(cc(OCc4cnn(C)c4)c3)NCCN2C1=O	0.01 to 0.1 µM
CCO[C@@H]1C[C@H]2COc3ccn4ncc(c4n3)-c3cc(O)cc(c3)NCCN2C1=O	< 0.01 µM
COCCO[C@@H]1C[C@H]2COc3nc4c(cnn4cc3OC3COC3)-c3cc(cc(OC)c3)NCCN2C1=O	< 0.01 µM
COc1cc2cc(c1)-c1cnn3cc(OC)c(nc13)OC[C@@H]1C[C@@H](OCCN(C)C)C(=O)N1CCN2	< 0.01 µM
O=C1[C@H](O)C[C@H]2COc3ccn4ncc(c4n3)-c3cc(F)cc(c3)NCCN12	< 0.01 µM
O=C1[C@H](O)C[C@H]2COc3ccn4ncc(c4n3)-c3cc(cc(-n4cccn4)c3)NCCN12	< 0.01 µM
CO[C@@H]1C[C@H]2COc3nc4c(cnn4cc3-c3cnn(C)c3)-c3cc(F)cc(c3)NCCN2C1=O	< 0.01 µM
COCc1cc2cc(c1)-c1cnn3cc(C)c(nc13)OC[C@@H]1CC(OC)C(=O)N1CCN2 (single isomer, unassigned) [Example 66]	< 0.01 µM
C=Cc1cc2cc(c1)-c1cnn3ccc(nc13)OC[C@@H]1C[C@@H](OCC)C(=O)N1CCN2	< 0.01 µM
CCO[C@@H]1C[C@H]2COc3nc4c(cnn4cc3C)-c3cc(F)cc(c3)NCCN2C1=O	< 0.01 µM
O=C1[C@H](OCC2CC2)C[C@H]2COc3ccn4ncc(c4n3)-c3cc(F)cc(c3)NCCN12	< 0.01 µM
CO[C@@H]1C[C@H]2COc3ccn4ncc(c4n3)-c3cc(cc(-n4cccn4)c3)NCCN2C1=O	< 0.01 µM
COCCc1cn2ncc3c2nc1OC[C@@H]1C[C@@H](OC)C(=O)N1CCNc1cc-3cc(-n2cccn2)c1	< 0.01 µM
CO[C@@H]1C[C@H]2COc3nc4c(cnn4cc3C)-c3cc(cc(C(=O)N(C)OC)c3)NCCN2C1=O	< 0.01 µM
CO[C@@H]1C[C@H]2COc3ccn4ncc(c4n3)-c3cc(cc(C(=O)NOC(C)C)c3)NCCN2C1=O	0.01 to 0.1 µM
COc1cc2cc(c1)-c1cnn3ccc(nc13)OC[C@@H]1C[C@@H](OC)C(=O)N1CC(C)N2 (single isomer, unassigned) [Example 106]	0.01 to 0.1 µM
COCCO[C@@H]1C[C@H]2COc3nc4c(cnn4cc3OC(C)C)-c3cc(cc(OC)c3)NCCN2C1=O	< 0.01 µM
COCCO[C@@H]1C[C@H]2COc3ccn4ncc(c4n3)-c3cc(cc(OC(C)C)c3)NCCN2C1=O (racemic)	0.01 to 0.1 µM
